System: HIV-1/106-Ala
Assay: Inhibition of HIV-1 induced syncytium formation in CEM cells, RT mutant 106-Ala
Type: cell-based
Settings: Human immunodeficiency virus 1, CCRF-CEM, 96 h, Table 2B, day 4, averages of 2 to 3 independent experiments, read-out: Antiviral Activity of Comparative Compounds EC50, 106-Ala
EC50: recorded values
Give the value, in units of µg/mL, as a plain number.

>  <compound>
CC1=C(C(=S)Nc2ccc(Cl)c(C=NOC(C)(C)C)c2)CCCO1 [Compound 5]

>  <measurementKind>
EC50

>  <recordedNumber>
0.025

$$$$
>  <compound>
C=CCOc1cc(NC(=S)c2sccc2C)ccc1OC [Compound 78]

>  <measurementKind>
EC50

>  <recordedNumber>
2

$$$$
>  <compound>
CC1=C(C(=S)Nc2ccc(Cl)c(C=NOC(C)(C)C)c2)CCO1 [Compound 7]

>  <measurementKind>
EC50

>  <recordedNumber>
0.03

$$$$
>  <compound>
COc1ccccc1C(=O)Nc1ccc(Cl)c(C(=O)OC2CCCC2)c1 [Compound 68]

>  <measurementKind>
EC50

>  <recordedNumber>
8.5

$$$$
>  <compound>
Cc1occc1C(=S)Nc1ccc(Cl)c(OCC(=O)OC(C)(C)C)c1 [Compound 115]

>  <measurementKind>
EC50

>  <recordedNumber>
0.2

$$$$

Qu. Give the measured EC50 for Cc1sccc1C(=S)Nc1ccc(Cl)c(C=NOC(C)(C)C)c1 [Compound 61]
Ans. 0.2

Qu. Supply recorded EC50 for O=C(OC1CCCCC1)c1cc(NC(=S)c2ccccc2Cl)ccc1Cl [Compound 80] here.
Ans. 5

Qu. For CC=CCSc1cc(NC(=O)c2ccsc2C)ccc1Cl [Compound 34] , write its EC50.
Ans. 0.28

Qu. Using the record for C=CCOc1cc(NC(=S)c2ccoc2C)ccc1OC [Compound 73] , state its measured EC50.
Ans. 0.8

----------
Tested on: HIV-1(IIIB)
Assay: Inhibition of HIV-1 induced syncytium formation in CEM cells, wild type
Assay type: cell-based
Settings: Human immunodeficiency virus 1, IIIB, CCRF-CEM, 96 h, Table 2B, WT = HIV-1(IIIB), day 4, averages of 2 to 3 independent experiments, read-out: Antiviral Activity of Comparative Compounds EC50, WT
In this section, each of the compounds is paired with its reported log10(EC50).
For clarity, the numbers are log10 values of EC50 expressed in µg/mL.

Previously resolved entries follow.
>  <compound>
Cc1occc1C(=S)Nc1ccc(Cl)c(C(=O)OC(C)C2CC2)c1 (stereo not shown)

>  <log10(EC50)>
-2.05

$$$$
>  <compound>
CC=CCOc1cc(NC(=O)C2=C(CC)OCCS2)ccc1Cl

>  <log10(EC50)>
-0.19

$$$$
>  <compound>
Cc1c(C(=O)Nc2ccc(Cl)c(C=NOC(C)(C)C)c2)ccn1C

>  <log10(EC50)>
-1.10

$$$$
>  <compound>
Cc1occc1C(=S)Nc1ccc(Cl)c(C=NOC(C)C)c1

>  <log10(EC50)>
-2.05

$$$$
>  <compound>
Cc1sccc1C(=S)Nc1ccc(Cl)c(OCC2CCCC2)c1

>  <log10(EC50)>
-1.54

$$$$
>  <compound>
Cc1ccoc1C(=S)Nc1ccc(Cl)c(C(=O)OC(C)C)c1

>  <log10(EC50)>
-1.70

$$$$
>  <compound>
CCC1=C(C(=O)Nc2ccc(Cl)c(C(=O)OC3CCCCC3)c2)SCCO1

>  <log10(EC50)>
-1.10

$$$$
>  <compound>
CC(C)OC(=O)c1cc(NC(=S)c2ccccc2)ccc1Cl

>  <log10(EC50)>
-1.30

$$$$
>  <compound>
CC(C)OC(=O)c1cc(NC(=S)c2ccco2)ccc1Cl

>  <log10(EC50)>
-1.00

$$$$
>  <compound>
CC(C)(C)ON=Cc1cc(NC(=S)c2ccccc2)ccc1Cl

>  <log10(EC50)>
-1.52

$$$$

Qu. Give a short answer stating reported log10(EC50) for Cc1occc1C(=S)Nc1ccc(Cl)c(OCCC(C)C)c1 .
Ans. -2.14

Qu. For the compound Cc1ccsc1C(=S)Nc1ccc(Cl)c(C(=O)OC(C(C)C)C(C)C)c1 , report log10(EC50).
Ans. -1.35

Qu. Quote log10(EC50) reported for Cc1occc1C(=O)Nc1ccc(Cl)c(C(=O)OC(C)C)c1 please.
Ans. -0.35

Qu. Return value of log10(EC50) for input CCOC(=O)CSc1cc(NC(=S)c2ccoc2C)ccc1Cl , no commentary.
Ans. -1.07

Qu. // fetch log10(EC50) given entry CC1=C(C(=S)Nc2ccc(Cl)c(C=NOC(C)(C)C)c2)CCO1
Ans. -2.19

Qu. Fill in log10(EC50) for record CC(C)C(OC(=O)c1cc(NC(=S)c2ccc[nH]2)ccc1Cl)C(C)C
Ans. -1.00

Qu. Please report the measured log10(EC50) for COc1ccccc1C(=S)Nc1ccc(Cl)c(C(=O)OC(C)C)c1
Ans. -0.72

Qu. Specify reported log10(EC50) for the compound shown: C=CCOC(=O)c1cc(NC(=S)c2ccoc2C)ccc1Cl
Ans. -2.00

Qu. Give the reported value of log10(EC50) for this record: COc1ccccc1C(=S)Nc1ccc(Cl)c(C(=O)OC2CCCCC2)c1
Ans. -1.40

----------
Test system: HIV-1(IIIB)
Assay: Inhibition of HIV-1 induced syncytium formation in CEM cells, wild type
Type: cell-based
Conditions: Human immunodeficiency virus 1, IIIB, CCRF-CEM, 96 h, Table 2B, WT = HIV-1(IIIB), day 4, averages of 2 to 3 independent experiments, read-out: Antiviral Activity of Comparative Compounds EC50, WT
measurementKind: log10 of EC50 (log10 of the value in µg/mL)
Units before log transform: µg/mL; reported quantity: EC50; transform: log10.

>  <chemicalString>
Cc1occc1C(=S)Nc1ccc(Cl)c(C(=O)OC(C(C)C)C(C)C)c1

>  <log10 of EC50>
-1.52

$$$$
>  <chemicalString>
Cc1occc1C(=S)Nc1ccc(Cl)c(C(=O)OCC2CC2)c1

>  <log10 of EC50>
-1.82

$$$$
>  <chemicalString>
CC(C)C(OC(=O)c1cc(NC(=S)c2cccn2C)ccc1Cl)C(C)C

>  <log10 of EC50>
-1.52

$$$$

Qu. Using known records, supply log10 of EC50 for C=C(C)COC(=O)c1cc(NC(=O)c2ccoc2C)ccc1Cl
Ans. -0.82

Qu. For Cc1occc1C(=S)Nc1ccc(Cl)c(C(=O)OC(C)C)c1 , write its log10 of EC50.
Ans. -2.15

Qu. Give the reported value of log10 of EC50 for this record: Cc1c(C(=S)Nc2ccc(Cl)c(C=NOC(C)(C)C)c2)ccn1C
Ans. -1.70

----------
Tested on: HIV-1/106-Ala
Test: Inhibition of HIV-1 induced syncytium formation in CEM cells, RT mutant 106-Ala
Assay type: cell-based
Conditions: Human immunodeficiency virus 1, CCRF-CEM, 96 h, Table 2B, day 4, averages of 2 to 3 independent experiments, read-out: Antiviral Activity of Comparative Compounds EC50, 106-Ala
measurementKind: log10 of EC50 (log10 of the value in µg/mL)
Hey, these are logged values: log10 of EC50, µg/mL being the unit before logging.

Use these answered entries as a reference point.
>  <compound>
CSc1sccc1C(=O)Nc1ccc(Cl)c(C=NOC(C)(C)C)c1 [Compound 36]

>  <studyTarget>
HIV-1/106-Ala

>  <log10 of EC50>
-0.07

$$$$
>  <compound>
Cc1occc1C(=S)Nc1ccc(Cl)c(C(=O)OCC2CC2)c1 [Compound 105]

>  <studyTarget>
HIV-1/106-Ala

>  <log10 of EC50>
-0.70

$$$$
>  <compound>
Cc1sccc1C(=O)Nc1ccc(Cl)c(C(=O)OC(C)C)c1 [Compound 31]

>  <studyTarget>
HIV-1/106-Ala

>  <log10 of EC50>
-0.22

$$$$

Qu. Give log10 of EC50 only, for C=CCOC(=O)c1cc(NC(=S)c2ccoc2C)ccc1Cl [Compound 104] , using HIV-1/106-Ala data.
Ans. -0.40

Qu. State the measured log10 of EC50 (HIV-1/106-Ala) of CC(C)OC(=O)c1cc(NC(=O)c2ccccc2)ccc1Cl [Compound 62]
Ans. 0.70

Qu. GET log10 of EC50 | system: HIV-1/106-Ala | item: CC(C)OC(=O)c1cc(NC(=S)c2ccco2)ccc1Cl [Compound 86]
Ans. 0.70

Qu. // fetch log10 of EC50; item: Cc1sccc1C(=S)Nc1ccc(Cl)c(OCC(C)(C)C)c1 [Compound 29] ; system: HIV-1/106-Ala
Ans. -0.30

Qu. Fill: log10 of EC50 (HIV-1/106-Ala) for this compound Cc1sccc1C(=S)Nc1ccc(Cl)c(C(=O)OC(C(C)C)C(C)C)c1 [Compound 21]
Ans. -0.64

Qu. Check HIV-1/106-Ala data and give log10 of EC50 for Cc1occc1C(=O)Nc1ccc(Cl)c(C(=O)OC(C)C)c1 [Compound 48] .
Ans. 0.81

Qu. Enter recorded log10 of EC50 with HIV-1/106-Ala for Cc1occc1C(=S)Nc1ccc(Cl)c(C(=O)OC(C)C2CC2)c1 (stereo not drawn) [Compound 55] here.
Ans. -1.10

Qu. Under HIV-1/106-Ala, report log10 of EC50 for CC(C)=CCOc1cc(NC(=O)c2ccoc2C)ccc1Cl [Compound 30]
Ans. -0.47

Qu. Retrieve log10 of EC50 on HIV-1/106-Ala; query CC1=C(C(=O)Nc2ccc(Cl)c(C(=O)OC(C(C)C)C(C)C)c2)SCCO1 [Compound 22]
Ans. -0.59

Qu. Lab note: HIV-1/106-Ala assay, enter log10 of EC50 for CCC1=C(C(=O)Nc2ccc(Cl)c(C(=O)OC3CCCCC3)c2)SCCO1 [Compound 13] here
Ans. -0.77
